Test system: PBMC
EXPERIMENT_NOTES: Immunostimulatory activity in human PBMC cells assessed as increase in IL-6 production at 2 uM incubated for 18 hrs by flow cytometry analysis
Type: functional, cell-based
Activity calls are given as the source filed them. The rule behind the calls is not given here.
Allowed answers: 1 (yes) for active, 0 (no) for inactive

Below, 2 molecules whose answers are already recorded.
{"columns": ["MOL", "CLASSIFICATION"],
 "data": [
  ["CCCCCCCCCCCCCCCCCC(=O)Oc1ccc(/C=C/C(=O)NCC(=O)N[C@H](C(=O)N[C@H](CCC(=O)OCC)C(=O)OCC)C(C)C)cc1OC", "0 (no)"],
  ["CCCCCCCCCCCCCCCCCC(=O)Oc1ccc(/C=C/C(=O)NCC(=O)N[C@H](C(=O)N[C@H](CCC(=O)OCC)C(=O)OCC)[C@@H](C)O)cc1OC", "0 (no)"]
]}

Inquiry: What did the test return for `CCOC(=O)CC[C@@H](NC(=O)[C@@H](NC(=O)CNC(=O)/C=C/c1ccc(OC(C)=O)c(OC)c1)C(C)C)C(=O)OCC` ?
Reply text: 1 (yes)
